system: NCCIT (Other Solid Carcinomas); assay: Bliss excess, mean over the matrix (fraction); higher = more synergy
Hi there, I'd appreciate the recorded Bliss excess for every entry that follows.
Please reply with the value in numeric form only.

Which measured Bliss excess value corresponds to CCN(CCO)CCCOc1ccc2c(Nc3cc(CC(=O)Nc4cccc(F)c4)[nH]n3)ncnc2c1 [AZD2811] + C[C@@H]1COCCN1C2=NC(=NC(=C2)C3(CC3)[S@](=N)(=O)C)C4=C5C=CNC5=NC=C4 [AZD6738] (first compound max 1 µM, 7x7, partner max 10 µM) ?
-0.0506

Bliss excess for CN(CCO)CC[C@H](CSc1ccccc1)Nc1ccc(S(=O)(=O)NC(=O)c2ccc(N3CCC([C@@H](O)c4ccccc4-c4ccc(Cl)cc4)CC3)cc2)cc1S(=O)(=O)C(F)(F)F [AZD4320] + C1CN(CCC1(C(=O)N[C@@H](CCO)C2=CC=C(C=C2)Cl)N)C3=NC=NC4=C3C=CN4 [Capivasertib] (first compound max 1 µM, 7x7, partner max 3 µM) ?
0.0224

# input compound: Cc1cc2ncnn2cc1Nc1ncc2c(n1)n(C1CCOCC1)c(=O)n2C [AZD7648] + C=CCn1c(=O)c2cnc(Nc3ccc(N4CCN(C)CC4)cc3)nc2n1-c1cccc(C(C)(C)O)n1 [AZD1775] (first compound max 10 µM, partner max 1 µM) ; wanted: its Bliss excess
0.0237

---

system: HCC1419 (Breast Carcinoma); assay: Bliss excess, mean over the matrix (fraction); higher = more synergy
Assay Readout: Bliss excess
Form field (numeric): enter value without unit.

Param item = CC1(C)CCC(CN2CCN(c3ccc(C(=O)NS(=O)(=O)c4ccc(NCC5CCOCC5)c([N+](=O)[O-])c4)c(Oc4cnc5[nH]ccc5c4)c3)CC2)=C(c2ccc(Cl)cc2)C1 [Venetoclax] + C[C@@H](Nc1cc(F)cc(F)c1)c1cc(C(=O)N(C)C)cc2c(=O)cc(N3CCOCC3)oc12 [AZD8186] (first compound max 1 µM, 7x7, partner max 3 µM) ; retrieve measured Bliss excess.
-0.0316

Any idea what Bliss excess was measured for CCN(CCO)CCCOc1ccc2c(Nc3cc(CC(=O)Nc4cccc(F)c4)[nH]n3)ncnc2c1 [AZD2811] + C=CCn1c(=O)c2cnc(Nc3ccc(N4CCN(C)CC4)cc3)nc2n1-c1cccc(C(C)(C)O)n1 [AZD1775] (first compound max 1 µM, partner max 1 µM) ?
-0.0545

---

system: NCI-H526 (Small Cell Lung Carcinoma); assay: combination Emax (second highest fraction inhibited in the dose matrix, 72 h); higher = more inhibition; extreme values may be limits of the assay
Assign combination Emax to each entry below.
Just the number.

For CC1(C)CCC(CN2CCN(c3ccc(C(=O)NS(=O)(=O)c4ccc(NCC5CCOCC5)c([N+](=O)[O-])c4)c(Oc4cnc5[nH]ccc5c4)c3)CC2)=C(c2ccc(Cl)cc2)C1 [Venetoclax] + C[C@@H](Nc1cc(F)cc(F)c1)c1cc(C(=O)N(C)C)cc2c(=O)cc(N3CCOCC3)oc12 [AZD8186] (first compound max 1 µM, 7x7, partner max 3 µM) , what is its reported combination Emax?
0.799

Looking for the measured combination Emax of NC1(C(=O)N[C@@H](CCO)c2ccc(Cl)cc2)CCN(c2ncnc3[nH]ccc23)CC1 [Capivasertib] + CCN(CCO)CCCOc1ccc2c(Nc3cc(CC(=O)Nc4cccc(F)c4)[nH]n3)ncnc2c1 [AZD2811] (first compound max 10 µM, 7x7, partner max 1 µM) , can you help?
0.588

Give the measured combination Emax of COc1cccc(OCCCN)c1-c1cc(Nc2cnc(C#N)cn2)n[nH]1 [Prexasertib] + CCc1c2c(nc3ccc(O)cc13)-c1cc3c(c(=O)n1C2)COC(=O)[C@]3(O)CC [SN-38] (first compound max 1 µM, 7x7, partner max 0.3 µM) .
1
